Would you kindly list kcat for each of these proteins?
Target: T1, APACP, ACP of the glycolipid PKS in Anabaena
T1 chain: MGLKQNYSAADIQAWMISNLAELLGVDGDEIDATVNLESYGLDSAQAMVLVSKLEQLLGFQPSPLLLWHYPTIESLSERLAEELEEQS
Give bare numbers, in s⁻¹.

MPPT, Sfp-like phosphopantetheinyl transferase (PPTase) from Microcystis aeruginosa NIES843 (protein) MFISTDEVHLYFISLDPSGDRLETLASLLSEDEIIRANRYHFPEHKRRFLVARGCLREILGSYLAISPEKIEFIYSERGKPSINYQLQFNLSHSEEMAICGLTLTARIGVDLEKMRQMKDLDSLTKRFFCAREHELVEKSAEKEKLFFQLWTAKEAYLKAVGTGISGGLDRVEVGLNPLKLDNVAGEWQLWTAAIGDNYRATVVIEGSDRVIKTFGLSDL	0.353
SPPT, Sfp-like phosphopantetheinyl transferase (PPTase) from Synechocystis sp. PCC6803 (protein) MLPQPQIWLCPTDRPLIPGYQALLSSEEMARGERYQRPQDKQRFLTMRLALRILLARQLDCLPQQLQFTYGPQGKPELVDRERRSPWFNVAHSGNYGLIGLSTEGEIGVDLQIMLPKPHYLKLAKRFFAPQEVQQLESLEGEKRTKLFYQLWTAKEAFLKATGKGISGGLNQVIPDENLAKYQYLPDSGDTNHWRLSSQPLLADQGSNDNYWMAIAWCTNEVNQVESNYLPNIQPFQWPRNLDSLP	0.243
APPT, Sfp-like phosphopantetheinyl transferase (PPTase) from Anabaena sp. PCC7120 (protein) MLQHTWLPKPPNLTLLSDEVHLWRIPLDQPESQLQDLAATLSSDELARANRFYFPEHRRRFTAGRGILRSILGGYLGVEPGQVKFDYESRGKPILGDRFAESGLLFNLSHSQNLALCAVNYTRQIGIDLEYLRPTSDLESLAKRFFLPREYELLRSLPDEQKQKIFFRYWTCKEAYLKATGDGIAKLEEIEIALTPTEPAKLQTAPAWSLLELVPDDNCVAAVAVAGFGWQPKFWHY	0.283

Note: attention shifts to another entry.
Exam item: Returns the measured kcat for the input protein. Input: Sfp, phosphopantetheinyl transferase from Bacillus subtilis (protein) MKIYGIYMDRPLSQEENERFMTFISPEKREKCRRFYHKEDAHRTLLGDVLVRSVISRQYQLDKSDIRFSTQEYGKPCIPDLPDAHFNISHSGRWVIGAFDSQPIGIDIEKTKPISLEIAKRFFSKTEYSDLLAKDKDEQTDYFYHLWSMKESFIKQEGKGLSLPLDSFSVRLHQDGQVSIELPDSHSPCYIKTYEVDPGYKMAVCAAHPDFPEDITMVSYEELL
Marked response: 0.368
